Biological target: GPR139 (Homo sapiens)
Assay: GPR139 Agonist titration / agonist counterscreen assay (calcium detection, HEK-GPR139 cells)
Assay type: cell-based
Parameters: expressed in transfected cells; host or cells: HEK Aequorin cells, Maxcyte transient transfection
Settings: GPR139 Agonist Activity; based on logP
Parameter Measured: Lipophilic Efficiency (logP)
Please respond with just the number, no unit label.

q: Identify the reported Lipophilic Efficiency (logP) for the following entry. Cc1ccc(C2(C)NC(=O)N(CC(=O)NCC(C)C)C2=O)cc1 (centres unmarked)
a: 5.64

q: Identify the reported Lipophilic Efficiency (logP) for the following entry. "O=C(COc1ccc2ccccc2c1)NNC(=O)Cc1cccc2ccccc12"
a: 3.15

q: Identify the reported Lipophilic Efficiency (logP) for the following entry. COc1cc(OC)cc(C(=O)NNC(=O)C(C)Oc2ccc(Cl)cc2Cl)c1 (centres unmarked)
a: 4.52

q: Identify the reported Lipophilic Efficiency (logP) for the following entry. O=C(CN1C(=O)NC2(CCc3ccccc32)C1=O)Nc1cccc(Cl)c1 (centres unmarked)
a: 4.18

q: Identify the reported Lipophilic Efficiency (logP) for the following entry. "Cn1cnnc1SCc1ccc(F)c2ccccc12"
a: 4.61

---

pEC50 for assorted compounds
Molecular target: GPR139 (Homo sapiens, UniProt Q6DWJ6)
Sequence (Q6DWJ6 whole entry): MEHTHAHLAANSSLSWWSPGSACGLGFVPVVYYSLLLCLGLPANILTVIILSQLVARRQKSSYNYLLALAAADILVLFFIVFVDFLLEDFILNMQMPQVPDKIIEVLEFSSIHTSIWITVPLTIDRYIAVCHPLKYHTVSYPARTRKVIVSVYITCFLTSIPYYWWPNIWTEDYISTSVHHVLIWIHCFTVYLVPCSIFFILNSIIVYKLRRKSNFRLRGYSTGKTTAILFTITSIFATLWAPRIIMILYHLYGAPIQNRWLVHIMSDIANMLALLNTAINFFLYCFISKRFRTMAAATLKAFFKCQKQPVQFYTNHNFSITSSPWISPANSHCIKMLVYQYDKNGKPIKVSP
Test: GPR139 Agonist titration / agonist counterscreen assay (calcium detection, HEK-GPR139 cells)
Type: cell-based
Set-up: expressed in transfected cells; host or cells: HEK Aequorin cells, Maxcyte transient transfection
Conditions: GPR139 Agonist Activity; values printed in E-notation without unit; read-out: EC50
Method: GPR activity was assessed using a calcium detection assay. […] Negative control samples were treated with DMSO. […] Intracellular calcium was measured using Calcium 5.
# pEC50: negative log10 of molar concentration; output just the value

The following compounds have reported results that may help.
{"Compound": "C=CCC(O)(CC=C)C(C)NC(=O)CCC1(Cc2ccc3ccccc3c2)CCC(=O)N1 (centres unmarked)", "System Tested": "GPR139 (Homo sapiens, UniProt Q6DWJ6)", "pEC50": 6.79}
{"Compound": "Cc1cc(Cl)ccc1OC(C)C(=O)NNC(=O)c1ccccc1 (centres unmarked)", "System Tested": "GPR139 (Homo sapiens, UniProt Q6DWJ6)", "pEC50": 7.88}
{"Compound": "CN(C(=O)CN1C(=O)NC(C)(c2ccc3ccccc3c2)C1=O)C1CCCCC1 (centres unmarked)", "System Tested": "GPR139 (Homo sapiens, UniProt Q6DWJ6)", "pEC50": 7.01}
{"Compound": "CC(C)CN1CCNC(=O)C1CC(=O)NCCCn1ccc2ccccc21 (centres unmarked)", "System Tested": "GPR139 (Homo sapiens, UniProt Q6DWJ6)", "pEC50": 7.72}
{"Compound": "COCC(=O)Oc1c(Sc2c(F)c(F)c(F)c(F)c2F)c(C)nn1C(C)(C)C", "System Tested": "GPR139 (Homo sapiens, UniProt Q6DWJ6)", "pEC50": 7.17}
{"Compound": "O=C(COc1ccc2ccccc2c1)NNC(=O)Cc1cccc2ccccc12", "System Tested": "GPR139 (Homo sapiens, UniProt Q6DWJ6)", "pEC50": 6.86}
{"Compound": "Cc1ccc(SCC(=O)NNC(=O)CCC(=O)c2cccs2)cc1", "System Tested": "GPR139 (Homo sapiens, UniProt Q6DWJ6)", "pEC50": 6.77}

Consider now this further compound.
q: Identify the reported pEC50 for the following entry. O=C(CC(C(=O)N1CCc2ccccc21)n1ccnc1)NCC1COc2ccccc2O1 (centres unmarked)
a: 7.99
